Ref: patent US20240207415A1

tested on: 22Rv1-Enz^R; test: 22Rv1-Enz^R cell proliferation assay; assay type: cell-based; settings: human prostate cancer cell line 22Rv1-Enz^R; 6-day culture, cell media changed every 24 hours; half maximal growth inhibition constant; read-out: 22Rv1-Enz^R proliferation assay GIC50
experimental-endpoint: IC50

Enquiry: Provide measured IC50 on 22Rv1-Enz^R for O=C(CCCCCCCCOc1ccc(-c2csc(N3CCOCC3)n2)cc1)NCCCCC(=O)Nc1ccc(C2CCC(=O)NC2=O)cc1 (stereo not drawn) [Example 7] please.
Return: 1 to 2 µM

Enquiry: Provide measured IC50 on 22Rv1-Enz^R for O=C(CCCCCCCCOc1c(-c2csc(N3CCOCC3)n2)ccc(F)c1F)NCCCCC(=O)Nc1ccc(C2CCC(=O)NC2=O)cc1 (stereo not drawn) [Example 4] please.
Return: < 1 µM

Enquiry: Provide measured IC50 on 22Rv1-Enz^R for O=C(CCCCCCCCOc1c(-c2csc(N3CCOCC3)n2)ccc(F)c1F)NCCCCNC(=O)c1ccc(N2CCC(=O)NC2=O)cc1 [Example 15] please.
Return: 2 to 10 µM

Enquiry: Provide measured IC50 on 22Rv1-Enz^R for O=C(CCCCCCCCOc1c(-c2csc(N3CCOCC3)n2)ccc(F)c1F)NCCCCCCC(=O)Nc1ccc(C2CCC(=O)NC2=O)cc1 (stereo not drawn) [Example 13] please.
Return: 1 to 2 µM

Enquiry: Provide measured IC50 on 22Rv1-Enz^R for O=C1CCC(c2ccc(OCCOCCOCCOCCn3cc(CCOc4c(-c5csc(N6CCOCC6)n5)ccc(F)c4F)nn3)cc2)C(=O)N1 (stereo not drawn) [Example 11] please.
Return: 1 to 2 µM

Enquiry: Provide measured IC50 on 22Rv1-Enz^R for O=C1CCC(c2ccc(OCCOCCOCCn3cc(CCOc4c(-c5csc(N6CCOCC6)n5)ccc(F)c4F)nn3)cc2)C(=O)N1 (stereo not drawn) [Example 10] please.
Return: 2 to 10 µM

Enquiry: Provide measured IC50 on 22Rv1-Enz^R for O=C(COc1ccc(C2CCC(=O)NC2=O)cc1)NCCOCCOCCOCCOc1c(-c2csc(N3CCOCC3)n2)ccc(F)c1F (stereo not drawn) [Example 3] please.
Return: 2 to 10 µM

Enquiry: Provide measured IC50 on 22Rv1-Enz^R for O=C1CCC(c2ccc(NC(=O)CCCCCCCCOc3c(-c4csc(N5CCOCC5)n4)ccc(F)c3F)cc2)C(=O)N1 (stereo not drawn) [Example 12] please.
Return: 2 to 10 µM

Enquiry: Provide measured IC50 on 22Rv1-Enz^R for O=C(CCCCCCCCOc1c(-c2csc(N3CCOCC3)n2)ccc(F)c1F)NCCOCCOCC(=O)Nc1ccc(C2CCC(=O)NC2=O)cc1 (stereo not drawn) [Example 14] please.
Return: 1 to 2 µM

Enquiry: Provide measured IC50 on 22Rv1-Enz^R for O=C1CCC(c2ccc(OCC(=O)N3CCN(CCOCCOc4c(-c5csc(N6CCOCC6)n5)ccc(F)c4F)CC3)cc2)C(=O)N1 (stereo not drawn) [Example 2] please.
Return: 1 to 2 µM

Enquiry: Provide measured IC50 on 22Rv1-Enz^R for O=C(CCCCCCCCOc1cccc(-c2csc(N3CCOCC3)n2)c1)NCCCCC(=O)Nc1ccc(C2CCC(=O)NC2=O)cc1 (stereo not drawn) [Example 6] please.
Return: 2 to 10 µM

Enquiry: Provide measured IC50 on 22Rv1-Enz^R for O=C(COc1ccc(C2CCC(=O)NC2=O)cc1)NCCCCCCCCNC(=O)COc1c(-c2csc(N3CCOCC3)n2)ccc(F)c1F (stereo not drawn) [Example 1] please.
Return: < 1 µM
